- Tested on: L1210 leukemia ip in BDF1 mice, survival T/C
- MEASUREMENT DESCRIPTION: NCI In Vivo Anticancer Drug Screen. Data for tumor model L1210 Leukemia (intraperitoneal) in B6D2F1 (BDF1) mice
- RUN CONDITIONS: endpoint: mean survival time; dose: 400.0 mg/kg/injection; schedule: Q04DX002 (ip); vehicle: saline with Tween-80; higher = longer survival
Toxic doses and inconclusive results are not listed.
MEASURED PARAMETER: T/C

Worked examples, 4 compounds total:
O=C(/C=C\c1cccc2ccccc12)c1ccc2ccccc2c1; 88 % of control
COc1cc(C=Nc2ccc(C)c(C)c2)ccc1OC(=O)c1ccccc1; 95 % of control
CCOCCOCCOC(C)Oc1ccc(Cl)cc1C (stereo not given); 103 % of control
CCC(C)C(C=NCC(CCN(CC)CC)(c1cccc2ccccc12)C(C)CC)(CCN(CC)CC)c1cccc2ccccc12 (stereo not given); 87 % of control

Input `CC(C)(C)c1cc(N)cc(C(C)(C)C)c1O` . Output T/C: 90 % of control

###

- System: L1210 leukemia ip in BDF1 mice, survival T/C
- MEASUREMENT DESCRIPTION: NCI In Vivo Anticancer Drug Screen. Data for tumor model L1210 Leukemia (intraperitoneal) in B6D2F1 (BDF1) mice
- RUN CONDITIONS: endpoint: mean survival time; dose: 200.0 mg/kg/injection; schedule: Q01DX009 (ip); vehicle: Klucel (hydroxypropylcellulose) (HPC); higher = longer survival
Inconclusive results and toxic doses are left out.
MEASURED PARAMETER: T/C

O=S(=O)(O)c1cc(Cl)c(O)c(Cl)c1; 102 % of control
O=C1C(Br)=CC(=C2C=C(Br)C(=O)C(Br)=C2)C=C1Br; 104 % of control
CCCCN1C(=O)C(=O)N(c2ccccc2C(F)(F)F)C1=O; 106 % of control

Bench note, L1210 leukemia ip in BDF1 mice, survival T/C: `Fc1c(F)c(F)c(Oc2c(F)c(F)[c]([Sn]([c]3c(F)c(F)c(Oc4c(F)c(F)c(F)c(F)c4F)c(F)c3F)([c]3c(F)c(F)c(Oc4c(F)c(F)c(F)c(F)c4F)c(F)c3F)[c]3c(F)c(F)c(Oc4c(F)c(F)c(F)c(F)c4F)c(F)c3F)c(F)c2F)c(F)c1F` , T/C reads 105 % of control

The value of T/C recorded for `O=C(/C=C/C(=O)Oc1c(Cl)c(Cl)c(Cl)c(Cl)c1Cl)Oc1c(Cl)c(Cl)c(Cl)c(Cl)c1Cl` when tested on L1210 leukemia ip in BDF1 mice, survival T/C reads 104 % of control

Bench note, L1210 leukemia ip in BDF1 mice, survival T/C: entry `O=c1[nH]c2ccc(Cl)cc2c2nc3ccccc3n12` , its T/C = 92 % of control

Simply: `N#CC/C(C#N)=C/OC(=O)c1ccc(Cl)cc1` , L1210 leukemia ip in BDF1 mice, survival T/C, T/C = 124 % of control

Summary line: `COc1ccc(OC)c(NC(=O)Nc2ccccc2C(F)(F)F)c1` , L1210 leukemia ip in BDF1 mice, survival T/C, reported T/C = 89 % of control

###

// reported T/C for each item listed
- Tested on: L1210 leukemia ip in BDF1 mice, survival T/C
- MEASUREMENT DESCRIPTION: NCI In Vivo Anticancer Drug Screen. Data for tumor model L1210 Leukemia (intraperitoneal) in B6D2F1 (BDF1) mice
- RUN CONDITIONS: endpoint: mean survival time; dose: 400.0 mg/kg/injection; schedule: Q01DX009 (ip); vehicle: Klucel (hydroxypropylcellulose) (HPC); higher = longer survival
Inconclusive results and toxic doses are left out.

OC1(C#CC2(O)c3ccccc3-c3ccccc32)c2ccccc2-c2ccccc21; 93 % of control
CCCCCC#CC(=O)O; 90 % of control
O=C(O)/C(=C\CCCCC/C=C(\CCO)C(=O)O)CCO; 99 % of control
CC(=Nc1ccc(Br)cc1)c1c(O)cc(C)oc1=O; 117 % of control

Noted for `O=C(O)CCc1cnc2ccccc2n1` : its T/C reads 96 % of control

T/C measured on `O=C(Nc1ccccc1O)c1ccc(Cl)c(Cl)c1` = 102 % of control

Please fill in: T/C reported for `Cc1ccc(N=Nc2ccc(C)cc2NC(=O)C2CC2)cc1` = 97 % of control

Lab note: `CN(C)c1ncnc(N)n1` gave T/C of 90 % of control

Entry `Cc1ccc(S(=O)(=O)OCCS(C)(=O)=O)cc1` , T/C reported as 101 % of control
